System: ACHN renal
assay details: NCI-60 one-dose screen, 48 h
assay conditions: 10 µM unless noted
Compounds without any hit were thinned out: in the full panel of roughly 83,000, 20% have a hit. Active and inactive are the calls of the source. How the source made its calls: active means growth percent below 10; inactive means the rest.
Labels: active, inactive

compound: CCCCCCCC/C=C\CCCCCCCCOc1ccccc1CC(=O)NCC[N+](C)(C)C
assigned category: inactive

compound: COc1ccc(C2C(c3nn[nH]n3)=C(N)Oc3c2ccc2ccccc32)cc1 (stereo not given)
assigned category: inactive

compound: CC/C=C\C[C@H](O)C/C=C1/C(=O)C=C[C@@H]1C/C=C\CCCC(=O)OC
assigned category: active

compound: COc1cc(N=Nc2cc(Cc3ccc(N(C)C)cc3)c(N)cc2N(C)C)c2ncccc2c1
assigned category: active

compound: NC(=O)c1ccc[n+]([C@@H]2O[C@H](COP(=O)([O-])OP(=O)(O)OC[C@H]3O[C@@H](n4cnc5c(N)ncnc54)[C@H](O)[C@@H]3O)[C@@H](O)[C@H]2O)c1
assigned category: inactive

compound: C#Cc1cccc(NC(=O)c2ccc(NC(=O)CCl)cc2)c1
assigned category: active

compound: COc1nc2c(c(=O)n1C)CN(c1ccccc1)C(=O)CN2C
assigned category: inactive

compound: CN1CCN(C(=O)c2c3c(n4ccccc24)C(=O)c2ncccc2C3=O)CC1
assigned category: inactive

compound: CCCCNC(=O)Oc1ccc2c(=O)c3sc4c(=O)c5ccccc5c(=O)c4c3c(=O)c2c1
assigned category: active

compound: O=[N+]([O-])c1ccc(Sc2cccc[n+]2[O-])c2nonc12
assigned category: inactive

----------
Reported values of growth for individual entries
Test system: UO-31 renal
assay details: NCI-60 one-dose screen, 48 h (100 = growth as untreated, 0 = no growth, -100 = all killed)
assay conditions: 10 µM unless noted
About 83,000 compounds went through this panel and 20% of them were active in at least one assay; those are over-represented in the sample as a whole.

compound: Cc1ccc(-c2c(-c3ccccc3)c(=O)oc3ccc(C)cc23)cc1
growth / %: 79.9
//
compound: CCOC(=O)c1c2ncccc2n2c(=O)n(-c3ccccc3C)nnc12
growth / %: 73.4
//
compound: COc1cc(/C=N/Nc2ncc(-c3cc4cc5c(cc4o3)OCO5)s2)cc(OC)c1OC
growth / %: 66.8
//
compound: COc1cc(OC)cc(C2CC(=O)Nc3c2c(C)nn3-c2nc3ccccc3[nH]2)c1 (stereo not given)
growth / %: 13.1
//
compound: NS(=O)(=O)c1cnccc1Oc1cccc2cccnc12
growth / %: 78.3

----------
Test system: NCI/ADR-RES ovarian
assay details: NCI-60 one-dose screen, 48 h
assay conditions: 10 µM unless noted
The panel holds about 83,000 compounds, 20% with a hit somewhere; the sample as a whole holds those more often. Calls of active or inactive are those of the source. How the source made its calls: active means growth percent below 10; inactive means the rest.
Labels: active, inactive

molecule: COc1ccc(N2CCN(c3nc(-c4cc(OC)c(OC)c(OC)c4)nc4ccccc34)CC2)cc1
assigned category: inactive

molecule: COc1ccc2nc(NNC(=O)c3cnccn3)c3cccn3c2c1
assigned category: active

molecule: CC(C)Sc1nc(NNC(N)=S)c(C#N)c(-c2ccc(F)cc2)n1
assigned category: inactive

molecule: NC(N)=NN=C(c1ccccc1)c1ccccc1
assigned category: inactive

molecule: N#CCN1C(=O)C2C3=C(CCCC3)SC2N=C1CN1CCCC1 (stereo not given)
assigned category: inactive

molecule: COc1cc2c(cc1-c1c(C)noc1C)ncc1nc(C3CCCCC3)n(C3CCC(OC(F)F)CC3)c12 (stereo not given)
assigned category: inactive

molecule: O=C(N/N=C/c1ccncc1)c1ccc(C(F)(F)F)nc1Nc1cccc(C(F)(F)F)c1
assigned category: active

molecule: c1csc(-c2c3ccc(=[N+]4CCCCC4)cc-3oc3cc(N4CCCCC4)ccc23)c1
assigned category: active

molecule: COc1ccc2[nH]c(O)c(C(=Nc3ccc(N(C)C(=O)CN4CCN(C)CC4)cc3)c3ccccc3)c2c1
assigned category: inactive

molecule: Cc1ccc2nc(NC(=O)CSc3nc(-c4ccccc4)c(C#N)c(=O)n3Cc3ccccc3)sc2c1
assigned category: inactive

----------
Test system: 786-0 renal
assay details: NCI-60 one-dose screen, 48 h (100 = growth as untreated, 0 = no growth, -100 = all killed)
assay conditions: 10 µM unless noted
About 83,000 compounds went through this panel and 20% of them were active in at least one assay; those are over-represented in the sample as a whole.
Reported values of growth for individual entries
property: growth (%)

compound: COc1cc(CCC[P+](c2ccccc2)(c2ccccc2)c2ccccc2)cc2c1OCO2
observed: 63.9

compound: C=C(C)[C@@H]1CC[C@]2(C)[C@H](CC=C3[C@@H]4CC(C)(C)CC[C@]4(C(N)=O)CC[C@]32C)[C@@]1(C)CCC#N
observed: 26.1

compound: COc1cc2ncn3c(=O)c4c5c(sc4nc3c2cc1OC)CCCC5
observed: 105

compound: C[n+]1cc2cc(C(N)=O)[nH]c3c(=N)c(Cl)c(N)c1c23
observed: 49.1

compound: CC(=O)N1N=C(c2ccc(Nc3nc(Nc4ccc(F)cc4)nc(Nc4ccc(F)cc4)n3)cc2)CC1c1cccc([N+](=O)[O-])c1 (stereo not drawn)
observed: 86.4

compound: C[C@H]1[C@H]2[C@H]3CC[C@@H]4[C@@]5(C)C/C(=C/c6ccco6)C(=O)C(C)(C)[C@@H]5CC[C@@]4(C)[C@]3(C)CC[C@]23CO[C@]1(C)[C@@H](C(=O)/C=C\c1ccco1)C3
observed: 104

compound: O=Cc1c[nH]c2ccc(-c3csc4ccccc34)cc12
observed: 58.4

compound: N#C/C(=C\c1ccc(Br)cc1)n1nnc2cc(F)c(F)cc21
observed: 23.2

----------
System: A549/ATCC NSCLC
assay details: NCI-60 one-dose screen, 48 h
assay conditions: 10 µM unless noted
About 83,000 compounds went through this panel and 20% of them were active in at least one assay; those are over-represented in the sample as a whole. Active and inactive are the calls of the source. How the source made its calls: active means growth percent below 10; inactive means the rest.
Labels: Y = active, N = inactive

compound: CNC(=O)CCN1CCN(CC/C=C2\c3ccccc3Sc3ccc(Cl)cc32)CC1
assigned category: Y
--
compound: Cc1cccc(-c2nc(N(C)c3ccc4ncsc4c3)c3ccccc3n2)n1
assigned category: N
--
compound: Cc1cc(Cl)nc(NCc2cc(Nc3ccnc4cc(Cl)ccc34)ccc2F)n1
assigned category: N
--
compound: Nc1ccc2c(c1)c(N)nn2C(=O)Nc1ccc(Cc2ccccc2)cc1
assigned category: N
--
compound: N=C1CCC(=N)c2c1c(O)c1ccccc1c2O
assigned category: N
--
compound: OC(COc1ccccc1Cl)COc1ccccc1Cl
assigned category: N
--
compound: O=[N+]([O-])c1ccc(C2CC(c3ccccc3)=Nc3ccccc3S2)cc1 (stereo not given)
assigned category: N
--
compound: Clc1cccc(Cl)c1/C=C/c1cc(/C=C/c2c(Cl)cccc2Cl)[nH]n1
assigned category: N
--
compound: CCc1c2c(nc3ccc(OC(=O)OCc4ccc(B5OC(C)(C)C(C)(C)O5)cc4)cc13)-c1cc3c(c(=O)n1C2)COC(=O)[C@]3(O)CC
assigned category: Y
--
compound: COc1cc(-c2nc(N3CCN(C)CC3)c3ccccc3n2)cc(OC)c1OC
assigned category: N

----------
System: UACC-62 melanoma
assay details: NCI-60 one-dose screen, 48 h
assay conditions: 10 µM unless noted
Compounds without any hit were thinned out: in the full panel of roughly 83,000, 20% have a hit. The source made the active and inactive calls. The calls were made as follows: active = growth percent below 10; inactive = the rest.
Labels: y (active), n (inactive)

sample smiles: CC/C=C\C/C=C\C[C@H](O)C/C=C1/C(=O)C=C[C@@H]1C/C=C\CCCC(=O)O
assigned category: y

sample smiles: COc1cccc(/C=C/C(=O)c2c(C)nc3ccccc3c2/C=C/c2ccc(C)cc2)c1OC
assigned category: n

sample smiles: COc1cccc(-c2nn(-c3ccccc3)cc2-c2ccnc(NCCNC(=O)Nc3cccc(C(F)(F)F)c3)c2)c1
assigned category: y

sample smiles: Cc1ccc2nc(C)c(-c3nnc(SCc4ccc(C#N)cc4)o3)n2c1
assigned category: n

sample smiles: C[C@@H]1N=C(c2ccc3ccccc3n2)Nc2nc3ccccn3c2C1=O
assigned category: n

----------
Reported values of growth for individual entries
Tested on: UACC-257 melanoma
assay details: NCI-60 one-dose screen, 48 h (100 = growth as untreated, 0 = no growth, -100 = all killed)
assay conditions: 10 µM unless noted
Compounds without any hit were thinned out: in the full panel of roughly 83,000, 20% have a hit.

compound: COc1cc(-c2n/c(=C\c3c(O)[nH]c4ccc(Cl)cc34)cc3c2=Nc2ccccc2-3)cc(OC)c1OC
experimental target: UACC-257 melanoma
growth / %: 27.2
--
compound: Cc1ccc(-n2nc3c(c(C#N)c2=O)CC(c2ccccc2Cl)C([N+](=O)[O-])=C3O)cc1 (centres undefined)
experimental target: UACC-257 melanoma
growth / %: 102
--
compound: COc1ccc(S(=O)(=O)NCCNc2nccc(-c3c(-c4cccc(F)c4)nc4sccn34)n2)cc1
experimental target: UACC-257 melanoma
growth / %: 66.7
--
compound: CN(C)CCC=C1c2ccccc2C(C)(C)c2ccccc21
experimental target: UACC-257 melanoma
growth / %: 24.2
--
compound: COc1ccc(/C=N\NC(=O)c2cc(-c3ccc(Br)cc3)n(-c3ccc(S(N)(=O)=O)cc3)n2)cc1
experimental target: UACC-257 melanoma
growth / %: 66.2
--
compound: CN(C)CC1=NC2SC=C(c3ccccc3)C2C(=O)N1CC#N (centres undefined)
experimental target: UACC-257 melanoma
growth / %: 108
--
compound: Cc1cc(C(=O)c2ccccc2)c(C)c2c1[nH]c1ccc(Cl)cc12
experimental target: UACC-257 melanoma
growth / %: 66.1
--
compound: COc1ccc(CNC(=O)C(O)C(Cc2ccccc2)NC(=O)c2[nH]c3ccccc3c(=O)c2C)cc1OC (centres undefined)
experimental target: UACC-257 melanoma
growth / %: 105
--
compound: COC(=O)[C@]12CC[C@@H](C)[C@H](C)[C@@H]1C1=CC[C@@H]3[C@@]4(C)C(C=O)=C[C@@](C)(COC(C)=O)[C@@H]4[C@H](O)C[C@@]3(C)[C@]1(C)CC2
experimental target: UACC-257 melanoma
growth / %: -58.6
--
compound: O=C(/C=C/c1ccc(Cl)nc1)c1ccc(Cl)cc1Cl
experimental target: UACC-257 melanoma
growth / %: 94.5
--
compound: CNC(=O)CCN1CCN(CC/C=C2\c3ccccc3Sc3ccc(Cl)cc32)CC1
experimental target: UACC-257 melanoma
growth / %: -30.9
--
compound: COc1ccc2c(c1)O/C(=C\c1cccc(OCC(=O)Nc3nc4ccccc4s3)c1)C2=O
experimental target: UACC-257 melanoma
growth / %: 106
--
compound: O=C(CSc1nnc(-c2ccc(NC(=O)c3cccnc3)cc2)o1)N[C@@H](Cc1ccc(O)cc1)C(=O)O
experimental target: UACC-257 melanoma
growth / %: 99.7
--
compound: COc1ccc(/C=c2\nc3n(-c4ccccc4)c4nc5c6c(sc5c(=N)n4n-3c2=O)CCCC6)cc1
experimental target: UACC-257 melanoma
growth / %: 106
--
compound: CCCCCCCCCCCCCCCCCCOc1ccccc1CC(=O)OCCC[N+](C)(C)C
experimental target: UACC-257 melanoma
growth / %: 84.7
--
compound: O=[N+]([O-])c1ccc(-c2cc(-c3ccc(Nc4nc(Nc5ccc(Cl)cc5)nc(Nc5ccc(Cl)cc5)n4)cc3)no2)cc1
experimental target: UACC-257 melanoma
growth / %: 105
--
compound: Cc1cccc(NC(=O)N/C(N)=N/c2nc(C)c(C)s2)c1
experimental target: UACC-257 melanoma
growth / %: 62.2
--
compound: N#CC1=C(/N=C/c2ccccc2)Oc2c(ccc3ccccc23)C1c1ccccc1 (centres undefined)
experimental target: UACC-257 melanoma
growth / %: 53.6
--
compound: COc1cc(/C=N/n2c(CN3CCOCC3)nc3ccccc3c2=O)cc(OC)c1OC
experimental target: UACC-257 melanoma
growth / %: 97
